- System: Rat fibroblasts (CREF)
- Assay Notes: Peg3 promoter luciferase inhibitors, potency, dose response, cell-based, HeLa, CREF/GAPDH counter-screen panel (AID 624167)
- Recorded Conditions: CREF/GAPDH counter-screens; run 2, dose range 1, at 100 µM (top of the series)
Label MET for high-side inhibition (at or above 80%) and NOT MET for low-side inhibition (below it).

Cc1ccc2nc(C)cc(Nc3ccc([N+](=O)[O-])cc3)c2c1; MET
COC(=O)c1nn(-c2ccc3c(c2)CCN3C(C)=O)cc1O; MET
CCc1ccc(C(=O)Nc2nc3ccccc3[nH]2)cc1; MET
CCCn1c(C)cc(C(=O)CN2C(=O)c3ccccc3S2(=O)=O)c1C; MET

Kindly consider the entry below.
Problem: Does the reported inhibition for COc1ccc(/C=C2/CCCC(CN(C)C)C2=O)cc1 (configuration not stated) fall at or above the 80% mark?
Solution: NOT MET

----------
Listed below: activity values for each entry.
- Assay Notes: caspase-8 TRAIL sensitization, hit retest, confirmation, cell-based, NB7+caspase-8, with/without TRAIL, luminescence panel (AID 651596)
- Recorded Conditions: NB7 neuroblastoma + caspase-8, without TRAIL, luminescence viability, without TRAIL, mean of runs, at 10 µM
Note: unit % is implicit; provide only the numeric part.

For orientation, consider the following solved cases.
Cc1cccc(NC(=O)c2nc[nH]c2C(=O)N[C@@H](CCCCNC(=O)OC(C)(C)C)C(=O)OC(C)(C)C)c1; 77
O=C(Nc1cccc(O)c1)c1noc2c1CCCCC2; 61
CNc1nc(N/N=C/c2cc([N+](=O)[O-])ccc2F)nc(Nc2ccccc2)n1; 86.5
O=C(Nc1ccc2[nH]ccc2c1)c1ccccc1; 75.3
Cc1ccc2c(c1)-c1nc3ccccc3cc1C2=NC1CCCCC1; 41.6
Cn1c(NC(=O)c2ccc(F)cc2)nc2ccccc21; 57.1

Problem: Name the recorded activity for CCCCN(C)C(=O)c1ccc(Nc2nc(C(N)Cc3ccc(C(F)(F)F)cc3)cs2)nc1 (stereo unspecified) .
Solution: 90.2

Problem: I would be grateful if you could share the reported activity for CN(C)S(=O)(=O)c1ccc(-c2cn3ccccc3n2)cc1 .
Solution: 73.5

Problem: Recorded activity of O=C(NC1=NCCS1)c1cccs1 , please.
Solution: -38

Problem: What measured activity goes with N#Cc1ccc(C(=O)Nc2nc(-c3cccs3)c(C(=O)C(F)(F)F)s2)cc1 ?
Solution: 37

Problem: So what does the record say about activity for C#Cc1ccc([C@@H]2C=C(C(=O)Nc3ccccc3)O[C@H](OCC)[C@H]2CCCO)cc1 ?
Solution: 91.5

----------
- Target Desc: Sentrin-specific protease 7 (Homo sapiens) (UniProt Q9BQF6)
- Sequence (Q9BQF6 706-1050 limits assumed): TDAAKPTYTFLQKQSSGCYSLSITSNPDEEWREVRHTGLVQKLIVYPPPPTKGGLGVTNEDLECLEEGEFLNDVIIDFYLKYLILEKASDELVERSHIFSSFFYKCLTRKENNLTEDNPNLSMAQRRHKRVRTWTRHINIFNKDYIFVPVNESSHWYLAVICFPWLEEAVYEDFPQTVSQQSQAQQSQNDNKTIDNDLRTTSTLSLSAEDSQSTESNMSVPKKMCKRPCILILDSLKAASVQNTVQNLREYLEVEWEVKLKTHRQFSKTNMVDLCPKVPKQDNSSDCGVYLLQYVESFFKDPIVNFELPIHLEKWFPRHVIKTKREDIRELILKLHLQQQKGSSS
- Assay Notes: SENP7 protease inhibitors, retest, confirmation, biochemical, luminescence, single concentration (AID 488917)
- Recorded Conditions: recombinant SENP7, Z-RLRGG-aminoluciferin luminescence, 40 min; at 12.5 µM; stronger effect = higher value
The list shows a part of the results. Activity calls are given as the source filed them.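 How the source made its calls: active means mean inhibition above about 50% in the one-dose retest (limit read from the data); inactive means the rest.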
Reported inhibition is given for each of the following molecules.

O=C(Nc1ccc(C2CC2(Cl)Cl)cc1)c1cccc([N+](=O)[O-])c1 (centres undefined); 87.5% (active)
O=c1c(-c2ccccc2)coc2cc(O)ccc12; 88.2% (active)
Cc1ccc(N/C=C/C(=O)c2ccccc2)cc1C; 91.5% (active)

Now take the following molecule into account.
Problem: Given the entry COc1ccc(CNC(=O)COc2ccccc2C(=O)c2cnn(-c3ccccc3)c2)cc1OC , what inhibition was observed with Sentrin-specific protease 7 (Homo sapiens) (UniProt Q9BQF6)?
Solution: 89.2% (active)
